Tested on: Human pancreatic cancer cell line Panc-1
PROCEDURE_DETAILS: In vitro anti-cancer cell experiment (MTT), Panc-1
Assay type: cell-based
SETUP_CONDITIONS: Homo sapiens; Panc-1, 48 hours, MTT
OBSERVABLE: pIC50
Keep it numeric: pIC50 is minus log10 of the concentration in mol/L.

Query: What value of pIC50 on Human pancreatic cancer cell line Panc-1 does O=c1[nH]cc(F)c(=O)[nH]1 [Example 5-FU, 5-fluorouracil, reference compound] have?
Reply: 3.71
